Tested on: Soybean (Glycine max)
experimental_protocol: Upland Foliar Application Test, crop injury
Assay type: in vivo
study_conditions: 30 g ai/a; foliar application at 2-3 leaf stage, emulsion; observed on the 30th day
Excerpt: Resin-made 1/10000-are pots were filled with the soil of an upland field. Redroot pigweed, morningglory (Ipomoea pupurea), common lambsquarters, foxtail meadow, johnsongrass, barnyardgrass, green foxtail, large crabgrass, soybean, corn and cotton were separately seeded and were allowed to germinate in a green house. […]
quantity: Crop injury Soybean (Glycine max)

The following compounds have reported results that may help.
1. COc1cc(OC)nc(Oc2cccnc2C2OCC(C)O2)n1 (stereo not shown); 0 (91-100 (No damages))
2. COc1cc(OC)nc(Oc2cccnc2C=O)n1; 1 (71-90 (Slight damages))
3. COc1cc(OC)nc(Oc2cccnc2C(OC)OC)n1; 0 (91-100 (No damages))
4. COc1cc(OC)nc(Oc2cccnc2C2OCCO2)n1; 0 (91-100 (No damages))

# evaluate next
# input Please supply the value of reported Crop injury Soybean (Glycine max) for the item CCCCOC(OCCCC)c1ncccc1Oc1nc(OC)cc(OC)n1
# output 0 (91-100 (No damages))

---

Test system: ALS (acetolactate synthase)
experimental_protocol: ALS (Acetolactate Synthase) Inhibition Test, pea enzyme
Assay type: biochemical
study_conditions: enzymoreaction inhibition rate at 10 ppm (5 μg/0.5 ml)
Method: To determine the selectivity in enzyme level between crops and weeds, an ALS inhibition test was conducted using pea as a representative of broadleaf crops and barnyardgrass as a representative of gramineous weeds. […] Next, the reaction-terminated liquid mixture was transferred into a thermostat water bath controlled at 60° C. and was heated for 15 minutes. […] After the above operation, the absorbance of the test solution at 525 nm was measured by a spectrophotometer (Absorbance 1 of Test Compound). […]
quantity: Inhibition rate (%) Pea
Give just the number in %; leave the unit off.

1. COc1cc(OC)nc(Oc2ccccc2C=O)n1 [B, reference compound]; 72
2. COc1cc(OC)nc(Oc2cccnc2C(OC)OC(C)C)n1 (stereo not shown); 0
3. COc1cc(OC)nc(Oc2cccnc2C2OCCO2)n1; 0
4. COc1cc(OC)nc(Oc2cccnc2C=O)n1; 3

# input Consider the molecule COc1cc(OC)nc(Oc2cccnc2C2OCCCO2)n1 . State its measured Inhibition rate (%) Pea.
# output 0

# input Report Inhibition rate (%) Pea, nothing else, for this molecule: CCOC(=O)c1ncccc1Oc1nc(OC)cc(OC)n1 [A, reference compound]
# output 52

# input Read off the recorded Inhibition rate (%) Pea for COc1cc(OC)nc(Oc2cccnc2C(OC)OC)n1
# output 0

# input Read off the recorded Inhibition rate (%) Pea for COc1cc(OC)nc(Oc2cccnc2C2OCC(C)O2)n1 (stereo not shown)
# output 0

# input Return Inhibition rate (%) Pea (reported value) for this molecule: CCOC(OCC)c1ncccc1Oc1nc(OC)cc(OC)n1
# output 0

# input Provide measured Inhibition rate (%) Pea value, entry: CCCCOC(OCCCC)c1ncccc1Oc1nc(OC)cc(OC)n1
# output 0

---

System: Foxtail (Setaria viridis)
experimental_protocol: Upland Foliar Application Test
Format: in vivo
study_conditions: 30 g ai/a; foliar application at 2-3 leaf stage, emulsion; observed on the 30th day
quantity: Herbicidal effects Foxtail (Setaria viridis)

1. COc1cc(OC)nc(Oc2cccnc2C(OC)OC)n1 [Compound No. 2]; 4 (6-10 (Severe damages))
2. COc1cc(OC)nc(Oc2cccnc2C=O)n1 [Compound No. 1]; 5 (0-5 (Death))
3. COc1cc(OC)nc(Oc2cccnc2C2OCC(C)O2)n1 (stereo not shown) [Compound No. 7]; 5 (0-5 (Death))
4. CCOC(=O)c1ncccc1Oc1nc(OC)cc(OC)n1 [A, reference compound]; 5 (0-5 (Death))
5. CCOC(OCC)c1ncccc1Oc1nc(OC)cc(OC)n1 [Compound No. 3]; 5 (0-5 (Death))
6. COc1cc(OC)nc(Oc2cccnc2C2OCCO2)n1 [Compound No. 6]; 4 (6-10 (Severe damages))

# input Quote Herbicidal effects Foxtail (Setaria viridis) reported for COc1cc(OC)nc(Oc2cccnc2C(OC)OC(C)C)n1 (stereo not shown) [Compound No. 5] please.
# output 5 (0-5 (Death))

# input Annotate the molecule COc1cc(OC)nc(Oc2ccccc2C=O)n1 [B, reference compound] with its measured Herbicidal effects Foxtail (Setaria viridis).
# output 4 (6-10 (Severe damages))

# input Give Herbicidal effects Foxtail (Setaria viridis) for CCCCOC(OCCCC)c1ncccc1Oc1nc(OC)cc(OC)n1 [Compound No. 4]
# output 5 (0-5 (Death))

# input Please report the measured Herbicidal effects Foxtail (Setaria viridis) for COc1cc(OC)nc(Oc2cccnc2C2OCCCO2)n1 [Compound No. 8]
# output 4 (6-10 (Severe damages))
